Values compiled from PubChem BioAssay (NCI).

# Assay: NCI Yeast Anticancer Drug Screen. Data for the bub3 strain (AID 167)
# Study Conditions: S. cerevisiae bub3 mutant strain, at 5.0 µM (retest, dose inferred, filed as 0.5), hits give high values
The panel holds about 79,000 compounds, 15% with a hit somewhere; the sample as a whole holds those more often.
Binary call on growth inhibition: 1 from 20% upward, -1 beneath that.

Please tell me: is the compound C=CCCCCO/N=C/c1c2c(O)c3c(O)c(C)c4c(c3c1O)C(=O)C(C)(O/C=C/C(OC)C(C)C(OC(C)=O)C(C)C(O)C(C)C(O)C(C)/C=C/C=C(\C)C(=O)N2)O4 (configuration not stated) at or over 20% in terms of growth inhibition?
1

Next: COc1cccc(C2c3cc4c(cc3OC(N3CCOCC3)C2C)OCO4)c1 (configuration not stated)
1

Next up: Cc1ccc(S(=O)(=O)N/N=C/c2cc(I)cc([N+](=O)[O-])c2O)cc1
-1

Subsequent entry: Cc1ccc(S(=O)(=O)c2cc(O)c(O)c3ccc(Br)cc23)cc1
-1

CCCCCCCCCCCCOC(=O)C[n+]1cccc(C(=O)Nc2ccccc2)c1 ?
1

And what about the compound c1ccc2c(c1)nc1cc(NC3CCCCC3)c(=NC3CCCCC3)cc-1n2C1CCCCC1 ?
-1

Next record, please: c1ccc(COc2cccc3[nH]ccc23)cc1
-1

Cool, now COc1cc2c(cc1OC)-c1nc(Nc3ccccc3)sc1CC2
-1

What do you get for Nc1ccc(Oc2ccc(-c3ccccc3)cc2)c(Cl)c1 ?
1

Would you mind doing O=C1CCCC2c3ccccc3NC12 (configuration not stated) as well?
-1

Next compound up: CC(C)CCC(C)(C)c1cc(O)ccc1O
1

CC(C)=CCC/C(C)=C/CC/C(C)=C/CC/C=C(\C)CC/C=C(\C)CCC[N+](C)(C)[O-] ?
-1

How about C/C(=N/O)c1cccc(C(F)(F)F)c1 ?
-1

Can you handle CCCCCCCCCCCN1C(=O)c2ccccc2S1(=O)=O next?
-1

Please do the same for C/C(=N\NC(=S)N1CCCC1)c1cnccn1 as well.
1

Now give it for O=S(=O)(Nc1ccccn1)c1ccc(NCc2c3ccccc3nc3cc(Cl)ccc23)cc1 too.
-1

Continue with CN(C)C1=NC2=S(SC(Nc3ccccc3)=N2)S1 (configuration not stated)
-1

Would you kindly repeat that for O=c1cccccc1O.O=c1cccccc1O.O=c1cccccc1O.[Ru] ?
-1

Okay, and COc1ccc2c(c1)OC(OC)(c1ccccc1)C(O)(OC)C2=O (configuration not stated) ?
-1

Let us now turn to Nc1nc(N)c(C(=O)SCc2ccccc2)nc1Cl
-1

# repeat for CC#CC(=O)Nc1ccccc1CC(c1c[nH]c2ccccc12)c1c[nH]c2ccccc12
1

Subsequent entry: O=C(c1ccc(Cl)c([N+](=O)[O-])c1)c1ccc(Cl)c([N+](=O)[O-])c1
-1

---

Provide the recorded growth inhibition for the entries that follow.
# Assay: NCI Yeast Anticancer Drug Screen. Data for the bub3 strain (AID 167)
# Study Conditions: S. cerevisiae bub3 mutant strain, at 5.0 µM (retest, dose inferred, filed as 0.5), hits give high values
Compounds without any hit were thinned out: in the full panel of roughly 79,000, 15% have a hit.
Kindly provide the numeric value in % only, without the unit symbol.

Dear colleague, I am looking for the recorded growth inhibition of the following compound: Cc1ccc(C(=O)/C(Cl)=N/O)cc1
3

Would you mind doing O=c1[nH]n(CCc2ccccn2)c(=O)c(Cl)c1Cl as well?
2

Now consider CCCCCCCCCCCCCCOCCS(=O)(=O)O and answer again.
6

// repeat for CCOC(=O)/C(=N/NS(=O)(=O)c1c(C)cc(C)cc1C)c1ccco1 and report
1

Entry to check: Cc1nc(N)sc1N=Nc1ccc(Cl)cc1
10

Cool, now C[C@@]12C[C@@H](Br)[C@H](Br)C[C@]1(C)O2
-6

---

# Assay: NCI Yeast Anticancer Drug Screen. Data for the cln2 rad14 strain (AID 165);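 further: 0% = growth equal to vehicle treated cultures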
# Study Conditions: S. cerevisiae cln2 rad14 strain, at 5.0 µM (retest, dose inferred, filed as 0.5), hits give high values
Compounds without any hit were thinned out: in the full panel of roughly 79,000, 15% have a hit.
Task for the reader: assign each of the following compounds its reported growth inhibition.
The reply should be a number in %, with the unit left off.

Dear colleague, I am looking for the recorded growth inhibition of the following compound: O=C(Nc1c(Cl)cccc1Cl)Oc1c(Br)cc(Br)cc1Br
25

Now this one: N#CC(CC(=O)O)C(c1cccc2ccccc12)c1cccc2ccccc12 (stereo not given)
4

Note, next up: O=C1OS(=O)(=O)c2cc3c(cc21)C1C(C2C3C3(Cl)C(Cl)=C(Cl)C2(Cl)C3(Cl)Cl)C2(Cl)C(Cl)=C(Cl)C1(Cl)C2(Cl)Cl (stereo not given)
8

Could you do the same for Nc1nc(-c2cc3cc(Cl)ccc3o2)cs1 , please?
35

Now consider OC(c1ccccc1)(C(F)(F)F)C(O)(c1ccccc1)C(F)(F)F (stereo not given) and answer again.
57

---

# Assay: NCI Yeast Anticancer Drug Screen. Data for the cln2 rad14 strain (AID 165);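 further: 0% = growth equal to vehicle treated cultures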
# Study Conditions: S. cerevisiae cln2 rad14 strain, at 50.0 µM, hits give high values
The panel holds about 79,000 compounds, 15% with a hit somewhere; the sample as a whole holds those more often.
Lab note: anything with growth inhibition at or over 40% counts as yes; the rest go in no.

Hi team, for CN(C)c1ccc(/C=C/C(=O)c2ccc([N+](=O)[O-])cc2)cc1 , is the recorded growth inhibition at or above 40%?
no

Then this molecule: CCCCCCN(CCCCCC)CCC(=O)c1ccc2cc(Cl)c3ccccc3c2c1
no

Entry to check: O=c1cc(-c2ccccc2)oc(-c2ccccc2)c1
no

Quick one: [Cu+2].[NH-]c1ccccc1O.[NH-]c1ccccc1[OH2+]
no

Entry Cn1cc(NC(=O)c2cc(NC(=O)CCCCCCC(=O)Nc3cc(C(=O)Nc4cc(C(=O)NCCC(=N)N)n(C)c4)n(C)c3)cn2C)cc1C(=O)NCCC(=N)N please
yes

---

# Assay: NCI Yeast Anticancer Drug Screen. Data for the sgs1 mgt1 strain (AID 161);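 further: 0% = growth of cultures given vehicle only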
# Study Conditions: S. cerevisiae sgs1 mgt1 strain, at 50.0 µM (retest, dose inferred, filed as 5.0), hits give high values
This is part of a sample that, as a whole, favours compounds with a hit. Of some 79,000 tested, about 15% had one in any assay. Activity calls are given as the source filed them. Cut-off read from the data, not from the text of the source: active = growth inhibition above about 70%; inactive = the rest.
Assay Metric: growth inhibition

Endpoint output: growth inhibition of CCCCCCC(=O)OCCN(CCOC(=O)CCCCCC)C(=O)C(C)OC(=O)CCCCCC (stereo unspecified) . Value?
62% (inactive)

Repeat for the following compound: COc1ccc(C=O)cc1C[P+](c1ccccc1)(c1ccccc1)c1ccccc1
99% (active)

Thanks! And CCCCCCCCCCCCCCCC1=NCCN1C ?
99% (active)

Also CCCC1c2ccc(O)cc2CC1c1ccc(O)cc1 (stereo unspecified) ?
99% (active)

Now this one: CCCCCN1C(=O)CC(C(=O)OCC)=C1C
-14% (inactive)

Also, CC1=C(C)CC2C(=O)C(C(O)CC(C)C)=CC(=O)C2C1 (stereo unspecified) please.
98% (active)

---

# Assay: NCI Yeast Anticancer Drug Screen. Data for the cln2 rad14 strain (AID 165);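 further: 0% = growth equal to vehicle treated cultures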
# Study Conditions: S. cerevisiae cln2 rad14 strain, at 50.0 µM (retest, dose inferred, filed as 5.0)
The panel holds about 79,000 compounds, 15% with a hit somewhere; the sample as a whole holds those more often. Active and inactive are the calls of the source. Cut-off read from the data, not from the text of the source: active = growth inhibition above about 70%; inactive = the rest.
Hi there, use one of these labels in your reply, thanks! 1 for active, 0 for inactive

Dear all, I need the recorded test outcome for O=C1C=CC(=O)c2c(O)c(N3CCN(CCOCCO)CC3)c(Br)c(O)c21 , thank you.
1

How about OCCOc1ccc2ccccc2c1-c1c(OCCOc2ccc3ccccc3c2-c2c(OCCO)ccc3ccccc23)ccc2ccccc12 ?
0

Likewise for CN1C=Cc2ccccc2C1C(C1c2ccccc2C=CN1C)[N+](=O)[O-] (stereo unspecified) ?
0

Do the same for O=C(COc1ccc(Br)cc1Br)N1N=C(c2ccc([N+](=O)[O-])o2)CC1(O)c1ccccc1 (stereo unspecified) please
0

Try O=C(CCN1CCCCC1)N1CCc2c([nH]c3ccccc23)C1c1cccnc1 (stereo unspecified) next.
0

Same thing, different compound: Cc1cc(Cl)cc2c1NC(=O)C2(O)C/C(=N/NC(=O)CC#N)c1cccc([N+](=O)[O-])c1 (stereo unspecified)
0

Now the compound OC1(c2ccccc2)CCC2CCCCC2C1 (stereo unspecified)
0

And CC1(C)OC2C(COC(c3ccccc3)(c3ccccc3)c3ccccc3)OC(n3cnc4c(N)ncnc43)C2O1 (stereo unspecified) ?
1

Please answer likewise for O=C(O)C(=O)Cc1ccc(O)cc1
0

Query CC1(C)NNC(=S)NN1 next
0

And CCCCCCCCNC(=O)C(Cl)Cl ?
0

Same lookup for COc1cc(C2OC(=O)c3ccccc3S2)ccc1O (stereo unspecified) , please.
1

Can you check CCCCCCCCCCCCCCNC(=O)C[N+](C)(C)Cc1ccccc1 next?
1

Likewise for Oc1ccc(C(c2ccccc2)(c2ccccc2)c2ccccc2)cc1O ?
1

What do you have for CCO[Si](CC)(OCC)OCC ?
0

Same question for CCN(CC)CCN(C)c1ccc(CO)c2c1C(=O)c1ccccc1S2=O (stereo unspecified) please.
0

Let us now turn to O=S(=O)(Sc1ccccc1)c1ccccc1
1

Further, for COC(=O)c1ccc2c(c1)C(O)NC(=O)O2 (stereo unspecified) ?
1

Entry COC1OC(CI)C(OC(c2ccccc2)(c2ccccc2)c2ccccc2)C(OC(c2ccccc2)(c2ccccc2)c2ccccc2)C1OC(c1ccccc1)(c1ccccc1)c1ccccc1 (stereo unspecified) please
0

Same read-out for O=C1C=CC(=O)c2cc(Sc3ccccc3)c(=O)ccc21 ?
1

Next: COC1=C(/C(=N/Nc2ccc([N+](=O)[O-])cc2[N+](=O)[O-])c2ccccc2)COC1=O
0

Next compound: O=C(Oc1ccc(/C=C/[n+]2ccccc2)c(OC(=O)c2ccccc2)c1)c1ccccc1
1

What do you have for O=C(CBr)N1c2ccccc2Sc2ccc3ccccc3c21 ?
1

Repeat for the following compound: CCCCCCC(C)S(=O)(=O)c1ccc(C)cc1 (stereo unspecified)
0

Entry to check: NNc1ccc(Br)cc1
1

Same again, this time with COC(=O)CSc1n[nH]c(-c2ccc(O)c([N+](=O)[O-])c2)n1
0

Now the same for S=C(C#Cc1ccccc1)Nc1ccccc1
1

// repeat for Cc1nc(Cl)nc(N)c1[N+](=O)[O-] and report
0

// repeat for CN(Cc1ccccc1)CC(O)c1ccc(/C=C/c2ccc(Cl)cc2)cc1 (stereo unspecified) and report
0

Then this compound: CCS(=O)(=O)/C=C/c1ccncc1
0

What do you have for CCn1c2ccccc2c2ccc(N=Nc3ccc(N(C)C)cc3)cc21 ?
1

Same question for S=C(Nc1ccc(Br)c(Cl)c1)SCc1ccc2c(c1)OCO2 please.
1

Another compound: CCN(CC)CCC(=O)OC1C(C)=CC(C)C(=O)CC(C(C)CC2CCC(O)C(OC)C2)OC(=O)C2CCCCN2C(=O)C(=O)[C@@]2(O)OC(CCC2C)CC(OC)\C(C)=C/C=C/C=C/C(C)CC(C)C(=O)C1OC (stereo partly specified)
1

What about this compound? CCC(C)SSc1ccccc1C(=O)Nc1ccc(Cl)cc1 (stereo unspecified)
1

And the next one, CNc1cc(SC)nc(N)n1 ?
0

Record: CCCCCCCOC(=O)c1cc2cc(C(CC)C(CC)c3ccc(O)cc3)ccc2oc1=O (stereo unspecified)
1

Please do the same for O=C(O)c1c(Br)c(Br)c(Br)c(Br)c1-c1c2ccc(=O)cc-2oc2cc(O)ccc12 as well.
1

Repeat for the following compound: O=C(O)CCCCCCCCC(=O)O.[Ag]
1

Now try Fc1cccc(C2SCc3nc4ccccc4n32)c1F (stereo unspecified) .
0

Input O=[N+]([O-])c1ccc2c(c1)CCc1ccccc1-2
0

What about CCOC(=O)C1=C(C)NC2=C(C(=O)N(c3ccccc3)C2c2ccccc2)C1c1ccccc1 (stereo unspecified) ?
0

Lookup CCCCCCCCCCCCCCC(C(=O)O)S(=O)(=O)O (stereo unspecified)
1

Consider next the compound Oc1ccc(O)c2c1CC=C(Cl)C2 in the same way.
1

Entry to check: Cc1cccc2c(CBr)cc(=O)[nH]c12
0

Further, for C[Si](C)(C)CC(c1ccccc1)C(O)c1ccccc1 (stereo unspecified) ?
1

Same lookup for O=C1c2ccccc2C(=O)c2cc(O)ccc21 , please.
0
